Kindly supply the reported hPXR Efficacy values for the records listed here.
Please give only the number in your answer, with no unit.

Would you please give the reported hPXR Efficacy of CC(=O)[C@H]1CC[C@H]2[C@@H]3CC[C@@H]4C[C@H](O)CC[C@]4(C)[C@H]3CC[C@]12C with human PXR (Homo sapiens)?
0.55

Would you please give the reported hPXR Efficacy of Cc1cc(O)c(C)c2c1O[C@](C)(CCC[C@H](C)CCC[C@H](C)CCCC(C)C)CC2 with human PXR (Homo sapiens)?
0.33

Would you please give the reported hPXR Efficacy of C[C@]12CC[C@H]3[C@@H](CCC4=CC(=O)CC[C@@]43C)[C@@H]1CC[C@H]2OS(=O)(=O)O [AN17, 4-Androsten-17α-sulfate-3-one] with human PXR (Homo sapiens)?
0.67

Would you please give the reported hPXR Efficacy of C[C@]12CC[C@H](O)CC1=CC[C@@H]1[C@@H]2CC[C@]2(C)C(=O)CC[C@@H]12 with human PXR (Homo sapiens)?
0.52

Would you please give the reported hPXR Efficacy of CC(O)C1CCC2C3CCC4CC(O)CCC4(C)C3CCC12C (stereo not shown) with human PXR (Homo sapiens)?
0.34

Would you please give the reported hPXR Efficacy of Cc1cc(O)cc2c1O[C@](C)(CCC[C@H](C)CCC[C@H](C)CCCC(C)C)CC2 with human PXR (Homo sapiens)?
0.64

Would you please give the reported hPXR Efficacy of C[C@]12CC[C@@H]3c4ccc(OS(=O)(=O)O)cc4CC[C@H]3[C@@H]1CC[C@@H]2O [ES10, 1,3,5(10)-Estratrien-17β-ol-3-sulfate] with human PXR (Homo sapiens)?
0.6

====

SYSTEM TESTED: UniProt O54915
Sequence (O54915 1-431): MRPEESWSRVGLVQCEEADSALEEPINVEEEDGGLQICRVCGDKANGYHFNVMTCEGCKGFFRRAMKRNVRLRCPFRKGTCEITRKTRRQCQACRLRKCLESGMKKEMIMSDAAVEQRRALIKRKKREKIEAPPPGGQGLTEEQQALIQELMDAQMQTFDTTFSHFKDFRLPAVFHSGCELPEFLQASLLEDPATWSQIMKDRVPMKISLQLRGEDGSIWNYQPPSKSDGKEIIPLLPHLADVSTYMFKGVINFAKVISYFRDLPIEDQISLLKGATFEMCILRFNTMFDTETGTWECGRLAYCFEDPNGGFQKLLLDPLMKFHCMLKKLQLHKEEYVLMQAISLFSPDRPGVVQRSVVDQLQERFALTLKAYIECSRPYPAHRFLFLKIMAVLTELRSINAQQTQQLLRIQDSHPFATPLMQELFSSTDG
RUN PARAMETERS: -log(EC50), EC50 in molar units
OUTCOME MEASURE: Mouse PXR Activity

Sample answers from the record:
C[C@H](CCC(=O)O)[C@H]1CC[C@H]2[C@@H]3CC[C@@H]4C[C@H](O)CC[C@]4(C)[C@H]3C[C@H](O)[C@]12C; No effect
C[C@H](CCC(=O)O)[C@H]1CC[C@H]2[C@@H]3[C@@H](O)[C@@H](O)[C@@H]4C[C@H](O)CC[C@]4(C)[C@H]3CC[C@]12C; No effect
CC(C)CCC[C@@H](C)[C@H]1CC[C@H]2[C@@H]3[C@H](O)C=C4C[C@@H](O)CC[C@]4(C)[C@H]3CC[C@]12C [BI047, 7α-Hydroxycholesterol]; No effect
C[C@H](CCC(O)C(CO)COS(=O)(=O)O)[C@H]1CC[C@H]2[C@@H]3[C@H](O)C[C@@H]4C[C@H](O)CC[C@]4(C)[C@H]3C[C@H](O)[C@]12C (stereo partly shown); 4.44
C[C@H](CCC(=O)NCC(=O)O)[C@H]1CC[C@H]2[C@@H]3[C@H](O)C[C@@H]4C[C@H](O)CC[C@]4(C)[C@H]3C[C@H](O)[C@]12C; No effect

Indicate the recorded Mouse PXR Activity value for this compound: c1ccc2c(c1)cc1ccc3cccc4ccc2c1c34 [MI3, Benzo [a]pyren]
4.86

Indicate the recorded Mouse PXR Activity value for this compound: CC(CCC(=O)O)C1CCC2C3C(O)C(O)C4CC(O)CCC4(C)C3CCC12C (stereo not shown)
No effect

Indicate the recorded Mouse PXR Activity value for this compound: CC(=O)[C@H]1[C@H](C#N)C[C@H]2[C@@H]3CC=C4C[C@@H](O)CC[C@]4(C)[C@H]3CC[C@@]21C
6.41 (ε = 1.0)

Indicate the recorded Mouse PXR Activity value for this compound: C[C@H](CCC(=O)NCCS(=O)(=O)O)[C@H]1CC[C@H]2[C@@H]3[C@@H](O)[C@@H](O)[C@@H]4C[C@H](O)CC[C@]4(C)[C@H]3CC[C@]12C
No effect

Indicate the recorded Mouse PXR Activity value for this compound: C[C@H](CCC(=O)O)[C@H]1CC[C@H]2[C@@H]3[C@H](O)[C@@H](O)[C@@H]4C[C@H](O)CC[C@]4(C)[C@H]3CC[C@]12C
4.59

====

SYSTEM TESTED: UniProt A5WYG8
Sequence (A5WYG8 144-430): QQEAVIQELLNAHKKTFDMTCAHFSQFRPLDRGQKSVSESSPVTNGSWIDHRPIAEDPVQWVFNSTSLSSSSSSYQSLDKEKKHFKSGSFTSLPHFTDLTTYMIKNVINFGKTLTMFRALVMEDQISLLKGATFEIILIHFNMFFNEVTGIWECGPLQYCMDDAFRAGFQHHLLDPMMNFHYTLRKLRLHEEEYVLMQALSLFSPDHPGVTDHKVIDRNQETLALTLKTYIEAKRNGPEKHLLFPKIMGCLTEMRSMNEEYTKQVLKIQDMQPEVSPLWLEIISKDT
OUTCOME MEASURE: EC50

Indicate the recorded EC50 value for this molecule: C[C@]12CC[C@H](O)CC1=CC[C@@H]1[C@@H]2CC[C@]2(C)C(=O)CC[C@@H]12 [AN9, 5-Androsten-3β-ol-17-one]
11 to 50 µM

====

SYSTEM TESTED: UniProtKB O75469
ASSAY REMARKS: PXR activation luciferase reporter assay, human PXR in HepG2-NTCP cells
RUN PARAMETERS: hPXR Activity, -log(EC50), EC50 in molar units, activation of human PXR
Kindly supply the reported EC50 values for the records listed here.

Indicate the recorded EC50 value for this compound: CC(=O)[C@H]1CC[C@H]2[C@@H]3CCC4=CC(=O)CC[C@]4(C)[C@H]3CC[C@]12C [PR7, 4-Pregnen-3,20-dione]
14.8 µM

Indicate the recorded EC50 value for this compound: C[C@]12CCC(=O)C=C1CC[C@@H]1[C@@H]2CC[C@@]2(C)[C@H]1CC[C@]2(O)C(=O)CO [PR4, 4-Pregnen-17,21-diol-3,20-dione]
22.9 µM

Indicate the recorded EC50 value for this compound: C[C@]12C[C@H](O)[C@H]3[C@@H](CCC4=CC(=O)CC[C@@]43C)[C@@H]1CC[C@@H]2C(=O)CO [PR3, 4-Pregnen-11β,21-diol-3,20-dione]
10 µM

Indicate the recorded EC50 value for this compound: CC(CCCC(CO)COS(=O)(=O)O)[C@H]1CCC2C3C(C[C@H](O)[C@@]21C)[C@@]1(C)CC[C@@H](O)C[C@@H]1C[C@H]3O (stereo partly shown) [BI036]
25.7 µM

Indicate the recorded EC50 value for this compound: Cc1c(C)c2c(c(C)c1O)CC[C@@](C)(CCC[C@H](C)CCC[C@H](C)CCCC(C)C)O2 [MI37, α-Tocopherol]
~50.1 µM

Indicate the recorded EC50 value for this compound: CCOP(=S)(OCC)Oc1nc(Cl)c(Cl)cc1Cl [MI10, Chlorpyrifos]
25.7 µM

Indicate the recorded EC50 value for this compound: C[C@H](CCC(=O)NCCS(=O)(=O)O)[C@H]1CC[C@H]2[C@@H]3CC[C@@H]4C[C@H](OS(=O)(=O)O)CC[C@]4(C)[C@H]3CC[C@]12C [BI44]
83.2 µM

====

SYSTEM TESTED: zebrafish PXR (Danio rerio)
Sequence (A5WYG8 144-430): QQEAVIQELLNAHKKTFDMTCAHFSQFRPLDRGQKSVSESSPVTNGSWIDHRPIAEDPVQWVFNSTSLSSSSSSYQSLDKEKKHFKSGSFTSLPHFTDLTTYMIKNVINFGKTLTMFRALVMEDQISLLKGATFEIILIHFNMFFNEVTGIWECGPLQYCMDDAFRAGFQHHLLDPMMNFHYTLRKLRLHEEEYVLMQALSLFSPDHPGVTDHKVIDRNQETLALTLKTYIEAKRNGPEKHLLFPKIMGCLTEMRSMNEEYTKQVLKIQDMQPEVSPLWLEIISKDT
ASSAY REMARKS: cell-based
RUN PARAMETERS: zfPXR Activity, -log(EC50), EC50 in molar units, activation of zebrafish PXR
OUTCOME MEASURE: pEC50
By convention, pEC50 is the negative base-10 log of a molar concentration.

Indicate the recorded pEC50 value for this compound: Clc1cc2c(cc1Cl)Oc1cc(Cl)c(Cl)cc1O2 [MI34, 2,3,7,8-tetrachlorodibenzo-p-dioxin]
6.32

Indicate the recorded pEC50 value for this compound: C#C[C@]1(O)CC[C@H]2[C@@H]3CCC4=CC(=O)CC[C@@H]4[C@H]3CC[C@@]21CC [PR27]
6.00

Indicate the recorded pEC50 value for this compound: C[C@]12CCC(=O)C=C1CC[C@@H]1[C@@H]2CC[C@]2(C)C(=O)CC[C@@H]12 [AN7, 4-Androsten-3,17-dione]
5.44

Indicate the recorded pEC50 value for this compound: C[C@]12CC[C@@H](O)C[C@@H]1CC[C@@H]1[C@@H]2CC[C@]2(C)[C@@H](O)CC[C@@H]12 [AN1, 5α-Androstan-3α,17β-diol]
5.19
